Tested on: cowpox virus (strain Grishak), CPXV
Criterion: SI CPXV (TC50/IC50) strictly less than 400. Met: true. Not met: false.

Answered cases to consult:
{"Molecule": "O=C(NC12CC3CC(CC(C3)C1)C2)c1ccc(F)cc1 [13a]", "Group label": "true"}
{"Molecule": "O=C(NC12CC3CC(CC(C3)C1)C2)c1ccc(Br)cc1 [15a]", "Group label": "false"}
{"Molecule": "O=C(NC12CC3CC(CC(C3)C1)C2)c1ccc(Cl)cc1 [14a]", "Group label": "false"}
{"Molecule": "O=C(NC1C2CC3CC(C2)CC1C3)c1ccc([N+](=O)[O-])cc1 (stereo not drawn) [18b, N-(adamantan-2-yl)-4-nitrobenzamide]", "Group label": "false"}
{"Molecule": "O=C(NC12CC3CC(CC(C3)C1)C2)c1ccc([N+](=O)[O-])cc1 [18a]", "Group label": "false"}

Here is the next item to consider.
Item Nc1ccn(C[C@@H](CO)OCP(=O)(O)O)c(=O)n1 [cidofovir, Cidofovir, reference compound] : SI CPXV (TC50/IC50) beneath 400, strictly?
true

---

Tested on: Vero cell culture
Details: African green monkey
Each record here notes measured TC50, 50% cytotoxic concentration.
Write it as a number; the unit µM goes unstated.

Field: example entries. Status: answers known.
{"Compound": "O=C(NC12CC3CC(CC(C3)C1)C2)c1ccccc1 [12a]", "Unit descriptor": "µM", "TC50, 50% cytotoxic concentration": 105.67}
{"Compound": "O=C(NC1C2CC3CC(C2)CC1C3)c1cccc([N+](=O)[O-])c1 (centres unmarked) [17b, N-(adamantan-2-yl)-3-nitrobenzamide]", "Unit descriptor": "µM", "TC50, 50% cytotoxic concentration": 9.50}

get_value(item= O=C(NC12CC3CC(CC(C3)C1)C2)c1ccc(Cl)cc1 [14a] , readout=TC50, 50% cytotoxic concentration) returns 346.00

---

Test system: mousepox virus—ectromelia (strain K-1), ECTV
Listed here are molecules together with their documented SI ECTV (TC50/IC50).
Give the figure by itself; no unit, no explanation.

Entry O=C(NC12CC3CC(CC(C3)C1)C2)c1ccc([N+](=O)[O-])cc1 [18a] under mousepox virus—ectromelia (strain K-1), ECTV had SI ECTV (TC50/IC50) of 6071

Lab note: molecule O=C(NC12CC3CC(CC(C3)C1)C2)c1ccc(Br)cc1 [15a] tested on mousepox virus—ectromelia (strain K-1), ECTV; recorded SI ECTV (TC50/IC50) was 2767

mousepox virus—ectromelia (strain K-1), ECTV SI ECTV (TC50/IC50) of O=C(NC12CC3CC(CC(C3)C1)C2)c1ccc(F)cc1 [13a] is 250

Recorded SI ECTV (TC50/IC50) for Nc1ccn(C[C@@H](CO)OCP(=O)(O)O)c(=O)n1 [cidofovir, Cidofovir, reference compound] on mousepox virus—ectromelia (strain K-1), ECTV was 31

Entry O=C(NC1C2CC3CC(C2)CC1C3)c1ccc([N+](=O)[O-])cc1 (stereo not drawn) [18b, N-(adamantan-2-yl)-4-nitrobenzamide] , mousepox virus—ectromelia (strain K-1), ECTV data, SI ECTV (TC50/IC50) value: 1093

Simply: O=C(NC12CC3CC(CC(C3)C1)C2)c1ccc(Cl)cc1 [14a] , mousepox virus—ectromelia (strain K-1), ECTV, SI ECTV (TC50/IC50) = 935

---

// values below are reported TC50, 50% cytotoxic concentration
Test system: Vero cell culture
Settings: African green monkey
Entry rule: numbers only, all in µM.

{"Molecule": "O=C(NC1C2CC3CC(C2)CC1C3)c1ccc(F)cc1 (stereo not drawn) [13b]", "Target desc": "Vero cell culture", "TC50, 50% cytotoxic concentration / µM": 104.00}
{"Molecule": "O=C(NC12CC3CC(CC(C3)C1)C2)c1ccc(Br)cc1 [15a]", "Target desc": "Vero cell culture", "TC50, 50% cytotoxic concentration / µM": 415.00}
{"Molecule": "O=C(NC1C2CC3CC(C2)CC1C3)c1ccc([N+](=O)[O-])cc1 (stereo not drawn) [18b, N-(adamantan-2-yl)-4-nitrobenzamide]", "Target desc": "Vero cell culture", "TC50, 50% cytotoxic concentration / µM": 492.00}
{"Molecule": "O=C(NC12CC3CC(CC(C3)C1)C2)c1ccc([N+](=O)[O-])cc1 [18a]", "Target desc": "Vero cell culture", "TC50, 50% cytotoxic concentration / µM": 546.43}
{"Molecule": "O=C(NC12CC3CC(CC(C3)C1)C2)c1ccc(F)cc1 [13a]", "Target desc": "Vero cell culture", "TC50, 50% cytotoxic concentration / µM": 347.31}

// O=C(NC12CC3CC(CC(C3)C1)C2)c1cccc([N+](=O)[O-])c1 [17a, N-(adamantan-1-yl)-3-nitrobenzamide] : TC50, 50% cytotoxic concentration value = 7.75

Sample O=C(NC1C2CC3CC(C2)CC1C3)c1ccccc1 (stereo not drawn) [12b] ; TC50, 50% cytotoxic concentration observed: 101.33

Just so you know, measured TC50, 50% cytotoxic concentration for O=C(NC1C2CC3CC(C2)CC1C3)c1ccc(Cl)cc1 (stereo not drawn) [14b] came out at 104.00

Nc1ccn(C[C@@H](CO)OCP(=O)(O)O)c(=O)n1 [cidofovir, Cidofovir, reference compound] yielded TC50, 50% cytotoxic concentration of 201.33
